# EXPERIMENTAL_TARGET: UniProt:P31645
# Sequence (P31645 whole entry): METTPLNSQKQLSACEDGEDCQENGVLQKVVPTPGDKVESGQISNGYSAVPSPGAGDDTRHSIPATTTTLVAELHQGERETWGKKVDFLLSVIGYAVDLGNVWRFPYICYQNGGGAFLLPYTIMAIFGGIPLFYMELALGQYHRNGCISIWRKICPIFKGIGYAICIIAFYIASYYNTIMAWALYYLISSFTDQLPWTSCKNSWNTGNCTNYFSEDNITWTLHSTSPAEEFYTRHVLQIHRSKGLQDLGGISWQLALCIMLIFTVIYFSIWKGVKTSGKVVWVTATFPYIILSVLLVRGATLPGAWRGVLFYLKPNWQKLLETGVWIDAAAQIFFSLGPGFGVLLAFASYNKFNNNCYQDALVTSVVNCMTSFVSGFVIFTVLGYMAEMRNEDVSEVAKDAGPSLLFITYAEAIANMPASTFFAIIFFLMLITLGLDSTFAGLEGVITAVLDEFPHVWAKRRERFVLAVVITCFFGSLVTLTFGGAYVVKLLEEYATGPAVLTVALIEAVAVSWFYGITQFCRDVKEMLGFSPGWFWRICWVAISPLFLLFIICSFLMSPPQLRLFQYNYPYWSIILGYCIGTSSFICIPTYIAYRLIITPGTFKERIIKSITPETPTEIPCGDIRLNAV
# EXPERIMENT_NOTES: Displacement of [3H]imipramine from human SERT expressed in HEK293 cells
IC50 overview
Provide only the numeric value, understood in nM.

Field: example entries. Status: answers known.
> print(dat)
                           substance.smiles  readout.label  endpoint.value
1  Cc1c(Cl)cccc1N1CCN(CCNC(=O)c2cc(C(C)(C)C)n(C)c2C)CC1           IC50             315
2  Cc1cccc(N2CCN(CCNC(=O)c3cc(C(C)(C)C)n(C)c3C)CC2)c1C           IC50             908
3  CCCn1c(-c2ccccc2)cc(C(=O)NCCCN2CCN(c3cccc(C(F)(F)F)c3)CC2)c1C           IC50             381

IN: Quick check: IC50 on UniProt:P31645, item Cc1c(C(=O)NCCCN2CCN(c3cccc(Cl)c3Cl)CC2)cc(-c2cccnc2)n1C ?
OUT: 7

IN: Quick check: IC50 on UniProt:P31645, item CCCn1c(-c2ccccc2)cc(C(=O)NCCCN2CCN(c3cccc4cccnc34)CC2)c1C ?
OUT: 82

IN: Quick check: IC50 on UniProt:P31645, item CCCn1c(-c2ccccc2)cc(C(=O)NCCCN2CCN(c3cc(F)ccc3F)CC2)c1C ?
OUT: 854

IN: Quick check: IC50 on UniProt:P31645, item Cc1c(C(=O)NCCCN2CCN(c3ccccc3Br)CC2)cc(-c2ccccc2)n1C ?
OUT: 225

IN: Quick check: IC50 on UniProt:P31645, item CCCn1c(-c2ccccc2)cc(C(=O)N(C)CCCN2CCN(c3cccc(C)c3C)CC2)c1C ?
OUT: 163

IN: Quick check: IC50 on UniProt:P31645, item Cc1cccc(N2CCN(CCCNC(=O)c3cc(C(C)(C)C)n(C)c3C)CC2)c1C ?
OUT: 252
